- target-under-test: human FPRL2 (Homo sapiens, UniProt P25089)
- Sequence (P25089 whole entry): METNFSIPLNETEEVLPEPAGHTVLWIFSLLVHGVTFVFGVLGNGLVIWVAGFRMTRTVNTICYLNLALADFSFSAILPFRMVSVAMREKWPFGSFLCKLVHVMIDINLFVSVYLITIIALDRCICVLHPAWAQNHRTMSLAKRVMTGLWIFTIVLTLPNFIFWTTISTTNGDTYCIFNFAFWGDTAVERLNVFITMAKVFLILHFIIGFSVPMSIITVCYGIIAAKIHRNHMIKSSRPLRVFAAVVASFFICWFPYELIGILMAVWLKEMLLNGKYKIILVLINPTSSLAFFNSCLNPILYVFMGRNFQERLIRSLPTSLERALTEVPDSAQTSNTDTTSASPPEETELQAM
- assay-summary: Intracellular calcium measurements (FLIPR), agonistic activity in HEK293-hFPRL2-Gα16 cells
- test-context: Fluo-4 calcium FLIPR, normalized to GLY14-Humanin 100 nM
quantity: EC50 (nM)

Below, 3 molecules whose answers are already recorded.
CC(=O)c1csc(CNC(=O)[C@H]2[C@H](C(=O)NCCCCN3CCCC3)[C@H]3C=C[C@@H]2C32CC2)n1 (racemic)	826
CC(=O)c1csc(CNC(=O)[C@H]2[C@H](C(=O)NCCCN(C)C)[C@H]3C=C[C@@H]2C32CC2)n1 (racemic)	15300
NCCCCCNC(=O)[C@H]1[C@H](C(=O)Nc2ncc(Br)s2)[C@@H]2C=C[C@H]1C21CC1 (racemic)	543

(1) CC(C)(CN)CNC(=O)[C@H]1[C@H](C(=O)Nc2ncc(Br)s2)[C@@H]2C=C[C@H]1C21CC1 (racemic)
(2) O=C(NCc1ccoc1)[C@H]1[C@H](C(=O)Nc2ccc(Br)cc2)[C@@H]2C=C[C@H]1C21CC1 (racemic)
(3) O=C(NCCCCN1CCCC1)[C@H]1[C@H](C(=O)Nc2ccc(C(F)(F)F)cn2)[C@@H]2C=C[C@H]1C21CC1 (racemic)
(4) NCCCCCNC(=O)C1C(C(=O)Nc2ncc(Br)s2)C2C=CC1C21CC1 (centres unmarked)
// ascending sort on recorded EC50 Please express your ranking as an ordered list of the labels.
3, 4, 2, 1
(3: 210 nM, 4: 382 nM, 2: 1080 nM, 1: 1630 nM)
